Test system: SW-620 colon
Test: NCI tumour cell line growth inhibition, 48 h
Provide the reported TGI of each item.

Provide the documented TGI with SW-620 colon as the system for `COc1nc2ncc([C@@H](OC(C)=O)[C@@H](COC(C)=O)OC(C)=O)nc2c(=O)n1C`
> 100 µM

Entry [N-]=[N+]=NC1C(Cl)C(=O)NC(=O)N1[C@H]1C[C@H](O)[C@@H](CO)O1 (stereo not given in full) , system SW-620 colon: what TGI was measured?
> 100 µM

Give TGI (SW-620 colon) of the following compound: `Cc1cccc(-c2nc(=S)[nH][nH]2)c1`
> 100 µM

Param readout= TGI; system= SW-620 colon; entry= `COc1ccc(/C=C2\C(=O)N(C(=O)c3ccc(NC(C)=O)cc3)N=C2C)cc1OC` ; returns value.
> 100 µM

Please tell me: TGI of OC(c1ccccc1)c1c(-c2ccccc2)[nH]c(-c2ccccc2)c1C(O)c1ccccc1 (stereo not given) , system SW-620 colon?
29.1 µM

Lab note: need TGI for `CCCCCOC(=O)c1c(C)[nH]c(/C=C2\N=C(c3ccc[nH]3)C=C2OC)c1C` on SW-620 colon, anyone have it?
1.28 µM

What measured TGI is associated with COc1ccc(CC(C)NCC(O)c2ccc(O)c(NC=O)c2)cc1 (stereo not given) on SW-620 colon?
> 100 µM

Please state recorded TGI (tested on SW-620 colon) of `CCCN1CCC(Oc2cc(Nc3nc(Nc4cccc(F)c4C(N)=O)c4cc[nH]c4n3)c(OC)cc2Cl)CC1`
3.57 µM

Param readout = TGI; param system = SW-620 colon; param query = `NCC(=O)N[C@H]1c2ccsc2/C(=N/O)[C@H]1O` ; response: value
> 100 µM

Hello, I am looking for reported TGI with SW-620 colon for `Fc1ccc(F)c(C=NC23CC4CC(CC(C4)C2)C3)c1` . Could you help?
> 10 µM

----------
Test system: A549 NSCLC
Experiment: NCI tumour cell line growth inhibition, 48 h; in the data active = GI50 below about 0.43 µM; inactive = the rest
Please state which outcome applies, choosing from true (1) = active, false (0) = inactive

What classification did `C/C(=C1\C(=O)Nc2ccccc21)c1cccc(/C(C)=C2/C(=O)Nc3ccccc32)n1` end up with in this test?
false (0)

Record request — test call for `Oc1ccc(CCNc2nc3ccccc3c3[nH]c4ccccc4c23)cc1O`
false (0)

Fill in: this test's call for `COc1ccc2c(c1[N+](=O)[O-])CC[C@@H]1[C@@H]2CC[C@]2(C)C(=O)CC[C@@H]12` is ___
false (0)

Kindly provide the recorded test outcome for the following compound: `N#Cc1nc2cc(Cl)c(Cl)cc2nc1-c1ccc(Cl)cc1`
false (0)

Record request — test call for `CCn1c(-c2nonc2N)nc2cnc(Oc3cccc(NC(=O)c4ccc(OCCN5CCOCC5)cc4)c3)cc21`
false (0)

State the result this test recorded for `O=C(Nc1ccccc1/C=C/c1n[nH]c2ccccc12)c1ccccc1` .
false (0)

Assay result, entry `Cc1ccc(/C=C/C(=O)c2ccc(F)cc2)s1` — outcome?
false (0)

What did the test return for Cc1cc[c]([Sb]2[O]C(CO)C(C(O)C(O)C(=O)O)[O]2)cc1 (centres undefined) ?
false (0)

What was the test verdict on CCCCCCCCCCCC(c1ccccc1)[N+](C)(C)C (centres undefined) ?
false (0)

Could you kindly confirm the outcome this assay logged for `O=C(O)CN(CCN(CC(=O)O)CC(=O)O)CCN(CC(=O)O)CC(=O)O` ?
false (0)

Per the records of this test, what outcome belongs to `COCCn1c(Nc2ccc(C(=O)NO)cc2)nc2ccccc21` ?
false (0)

Can you look up the reported call for `Cc1ccc(NC(=O)c2ccoc2)cc1-c1ccc(C(=O)NCC2CC2)cc1` for me?
false (0)

Any idea what this test logged for `Cc1cc2c(cc1Cl)SC(=Nc1ccc(Cl)cc1)N(S(=O)(=O)c1ccc(Br)s1)S2(=O)=O` ?
false (0)

// param item: `CC[O-].CC[O-].[O-]c1ccccc1C=NC12CC3CC(CC(C3)C1)C2.[O-]c1ccccc1C=NC12CC3CC(CC(C3)C1)C2.[Ti+4]` ; yields the recorded call
false (0)

For `CCOC(=O)c1sc2nc(=S)[nH]c(NC(N)=S)c2c1C` , which call appears in the assay record?
false (0)

Kindly provide the recorded test outcome for the following compound: Clc1ccc2c(NC3CCC(NC4CCCCC4)CC3)ccnc2c1 (centres undefined)
false (0)

What call does the record list for `Clc1ccc2c(NCCCCNc3nc(N4CCOCC4)nc4ccccc34)ccnc2c1` ?
false (0)

Hi, do you know how `c1ccc2[nH]c(-c3ccc(Nc4nc(N5CCCC5)nc5[nH]ncc45)cc3)nc2c1` came out in this test?
true (1)

// param item: `Clc1cccc(-c2cc(-c3ccc4c(c3)OCCO4)[nH]n2)c1` ; yields the recorded call
false (0)

Hello, the source for this data is PubChem BioAssay (NCI), in case you need it.
